readout: melting point

Recorded melting point, per entry:
{"molecule": "O=C(O)CN1CCS(=O)(=O)CC1", "test-value": "179 to 181 °C"}
{"molecule": "O=C(O)C1CCCN1C(=O)c1cc(Cl)ccc1Cl (stereo not drawn)", "test-value": "194 to 196 °C"}
{"molecule": "O=C(O)c1ccc(-c2ccccc2OC(F)(F)F)cc1F", "test-value": "150 to 152 °C"}
{"molecule": "ICc1cccc2cccnc12", "test-value": "79 to 81 °C"}

Need melting point of COC(=O)C(=O)CN1C(=O)c2ccccc2C1=O , thanks. 134 to 136 °C

Need melting point of Cc1cc(C)c(C(N)=O)c(N2CCCC2)n1 , thanks. 174 to 176 °C

Need melting point of Cc1cc(C(N)C(=O)O)cc(C)c1O (stereo not drawn) , thanks. 203 to 205 °C

Need melting point of O=C(O)C1CCCCN1S(=O)(=O)c1ccc([N+](=O)[O-])cc1 (stereo not drawn) , thanks. 161 to 163 °C

Need melting point of CC(C)(C)CC(=O)NCC(=O)O , thanks. 106 to 108 °C

Need melting point of O=C(O)c1cc(S)ccc1Br , thanks. 146 to 148 °C

Need melting point of CCc1c(O)nc(S)n(-c2cccc(OC)c2)c1=O , thanks. 141 to 143 °C

Need melting point of Cc1cc(Cl)c(N)cc1Cl , thanks. 86 to 88 °C

Need melting point of COC(=O)c1ccc2ccn(C)c2c1 , thanks. 91 to 93 °C

----------
readout: melting point

Recorded melting point, per entry:
{"molecule": "O=C(O)c1ccc(Oc2cccc(Br)c2)nc1", "melting point": "154 to 156 °C"}
{"molecule": "CSc1ccnc(C#N)c1", "melting point": "66 to 68 °C"}
{"molecule": "Cc1ccc(NC(=O)C(C)C)cc1N", "melting point": "160 to 162 °C"}

Need melting point of COc1ccc(-c2noc(=O)[nH]2)cc1OC , thanks. 211 to 213 °C

Need melting point of Nc1nnc(-c2ccccc2)o1 , thanks. 243 to 245 °C

Need melting point of NCC(=O)Nc1cccc(F)c1 , thanks. 82 to 84 °C

Need melting point of N#Cc1ccc(N2CCNC(=O)C2)cc1 , thanks. 224 to 226 °C

Need melting point of CC(Cl)C(=O)Nc1ccc2c(c1)OC1(CCCCC1)O2 (stereo not drawn) , thanks. 98 to 100 °C

Need melting point of CCC(Nc1c([N+](=O)[O-])c(C)nn1C)C(=O)O (stereo not drawn) , thanks. 129 to 131 °C

Need melting point of O=C(Nc1ccccc1)c1cccc(-n2ccnc2S)c1 , thanks. 228 to 230 °C

Need melting point of CC(C)N(C)S(=O)(=O)c1cccc(C(=O)O)c1 , thanks. 168 to 170 °C

Need melting point of COCCCn1cnnc1S , thanks. 161 to 163 °C

Need melting point of O=Cc1csc(-c2cccc(Br)c2)n1 , thanks. 99 to 101 °C

----------
melting point: recorded values

Recorded melting point, per entry:
{"compound": "O=Cc1cnc(-c2cnccn2)s1", "melting point": "159 to 161 °C"}
{"compound": "CC(=O)OCc1ccc(S(=O)(=O)C(F)F)cc1", "melting point": "75 to 77 °C"}
{"compound": "Cc1ccn2c(C(=O)O)cnc2c1", "melting point": "159 to 161 °C"}

Need melting point of O=C(O)CN1C(=O)CNC1=O , thanks. 185 to 187 °C

Need melting point of COc1ccc2c(ccn2CC(=O)O)c1 , thanks. 140 to 142 °C

Need melting point of Nc1nc(-c2cccc(-n3cnnn3)c2)cs1 , thanks. 184 to 186 °C

Need melting point of COc1cccc(/C=C/C(=O)O)c1OC(F)F , thanks. 208 to 210 °C

----------
melting point: recorded values

{"compound": "Clc1nc(Br)n[nH]1", "melting point": "178 to 180 °C"}
{"compound": "Cc1cc(CC#N)no1", "melting point": "36 to 38 °C"}
{"compound": "NS(=O)(=O)N1CCCCC1", "melting point": "121 to 123 °C"}

Need melting point of O=C(O)c1cccc(S(=O)(=O)N2CCN(c3ccc(F)cc3)CC2)c1 , thanks. 129 to 131 °C

Need melting point of S=C=Nc1cccc2ncccc12 , thanks. 60 to 62 °C

Need melting point of CC(=O)c1ccc(SCC(=O)O)cc1F , thanks. 138 to 140 °C

Need melting point of Sc1nc2c(s1)CCCC2 , thanks. 119 to 121 °C

Need melting point of CC1CNC(=O)CC(C)C1 (stereo not drawn) , thanks. 122 to 124 °C

----------
readout: melting point

Recorded melting point, per entry:
{"compound": "O=C(O)c1nn(Cc2ccccc2)c(=O)c2ccccc12", "melting point": "199 to 201 °C"}
{"compound": "CC(C)C(Br)C(=O)NC1CCS(=O)(=O)C1 (stereo not drawn)", "melting point": "139 to 141 °C"}

Need melting point of Cc1nnnn1C(Cc1ccc(F)cc1)C(=O)O (stereo not drawn) , thanks. 152 to 154 °C

Need melting point of O=C(O)c1cc2ccccc2c(Cl)n1 , thanks. 202 to 204 °C

----------
melting point: recorded values

{"compound": "Cc1ccc(C(=O)O)cc1NC(=O)c1ccccc1F", "melting point": "268 to 270 °C"}
{"compound": "Nc1nc(CN2CCOCC2)cs1", "melting point": "145 to 150 °C"}
{"compound": "O=C(CCl)NCc1ccccc1COc1ccccc1", "melting point": "100 to 102 °C"}
{"compound": "O=C1Nc2c(Br)cc(Cl)cc2C1=O", "melting point": "245 to 247 °C"}
{"compound": "CC(C)C(=O)N1CCC(C(=O)O)CC1", "melting point": "102 to 104 °C"}
{"compound": "O=C(O)c1cc(Cl)ccn1", "melting point": "170 to 174 °C"}
{"compound": "O=C(CCl)Nc1cc(C(F)(F)F)ccc1Cl", "melting point": "71 to 73 °C"}
{"compound": "O=C(Nc1ccc(-c2ccccc2)cc1)OCC(F)(F)F", "melting point": "168 to 170 °C"}
{"compound": "Nc1cccc(Br)c1CO", "melting point": "94 to 96 °C"}
{"compound": "O=c1[nH]c(-c2ccccn2)no1", "melting point": "198 to 200 °C"}

Need melting point of Nc1cccc(-n2cc[nH]c2=O)c1 , thanks. 155 to 157 °C

Need melting point of O=C(O)c1ccc(Br)cc1-n1cncn1 , thanks. 293 to 295 °C

Need melting point of O=c1[nH]c(CN2CCOCC2)nc2sc3c(c12)CCCC3 , thanks. 162 to 164 °C

Need melting point of O=C(O)C1(c2cccc(Br)c2)CC1 , thanks. 143 to 145 °C

----------
melting point: recorded values

{"compound": "NC(=NO)c1ccc(Oc2ccccc2)nc1", "melting point": "159 to 161 °C"}
{"compound": "CCn1c(S)nc2ccsc2c1=O", "melting point": "286 to 288 °C"}
{"compound": "OC1CCCc2c[nH]nc21 (stereo not drawn)", "melting point": "107 to 109 °C"}

Need melting point of N#Cc1ccnc(-n2cccn2)c1 , thanks. 96 to 98 °C

Need melting point of O=C(O)c1cnn(-c2ccc(Cl)nn2)c1C(F)(F)F , thanks. 99 to 101 °C

Need melting point of CC(C)(C)OC(=O)N1CC2CNCC2C1 (stereo not drawn) , thanks. 29 to 31 °C

Need melting point of Nc1cc(-c2cc(F)cc(Br)c2)[nH]n1 , thanks. 104 to 106 °C

Need melting point of CC(C)(C)OC(=O)N1CCc2ccc(O)cc2C1 , thanks. 134 to 136 °C

Need melting point of NC(CC(=O)O)c1cc(Cl)cc(Cl)c1 (stereo not drawn) , thanks. 205 to 207 °C

Need melting point of Nc1ccccc1OCC(F)(F)F , thanks. 49 to 51 °C

Need melting point of Cn1cc(Br)cc1C(=O)O , thanks. 129 to 131 °C

Need melting point of Cc1cc(C(C#N)c2ccc(Cl)cc2)c(Cl)cc1N (stereo not drawn) , thanks. 147 to 153 °C

Need melting point of CN(C)C(=O)COc1ccc(C#N)cc1 , thanks. 110 to 112 °C

Need melting point of CC(C)CNCC(=O)O , thanks. 198 to 200 °C

Need melting point of OCc1cc(Br)c2c(c1)OCO2 , thanks. 134 to 136 °C

Need melting point of NC(=NO)c1cccc(Cn2cnc3ccccc32)c1 , thanks. 226 to 228 °C

Need melting point of CS(=O)(=O)c1ccc(CCN)cc1 , thanks. 76 to 78 °C

Need melting point of NCc1ccc(NC(=O)C(F)(F)F)cc1 , thanks. 106 to 108 °C

Ref: a melting point compilation (Tetko et al.)
